All values here come from the Human Domainome abundance scans (Beltran et al. 2025).

B1: Transcription intermediary factor 1-beta, residues 620 to 671; numbered along this chain, Q13263 (parent)
chain: TLDDSATICRVCQKPGDLVMCNQCEFCFHLDCHLPALQDVPGEEWSCSLCHV

- Variants of: B1
- RUN DESCRIPTION: abundance fitness (aPCA) (normalised: wild type 0, dead -1); higher = more abundant; growth selection in yeast, the domain comes from the species named
- CONDITION CONTEXT: Homo sapiens
Each entry below carries its recorded abundance fitness.

CHANGE: L30D
abundance fitness: -0.755
--
CHANGE: D4R
abundance fitness: 0.015
--
CHANGE: P41F
abundance fitness: -0.439
--
CHANGE: G16N
abundance fitness: 0.137
--
CHANGE: C24A
abundance fitness: -0.666
--
CHANGE: P15I
abundance fitness: -0.359
--
CHANGE: D39V
abundance fitness: 0.026
--
CHANGE: H29C
abundance fitness: -0.67
--
CHANGE: W45F
abundance fitness: -0.342
--
CHANGE: E44G
abundance fitness: -0.042
--
CHANGE: S48N
abundance fitness: -0.114
--
CHANGE: A36N
abundance fitness: -0.384
--
CHANGE: V40H
abundance fitness: -0.361
--
CHANGE: N22G
abundance fitness: -0.27
--
CHANGE: T1G
abundance fitness: -0.602
--
CHANGE: I8D
abundance fitness: -0.51
--
CHANGE: H29E
abundance fitness: -0.919
